Data provenance: the RNAGym collection of RNA variant scans (doi:10.1073/pnas.2313332121)

B1: TPR 5TU (parent)
chain: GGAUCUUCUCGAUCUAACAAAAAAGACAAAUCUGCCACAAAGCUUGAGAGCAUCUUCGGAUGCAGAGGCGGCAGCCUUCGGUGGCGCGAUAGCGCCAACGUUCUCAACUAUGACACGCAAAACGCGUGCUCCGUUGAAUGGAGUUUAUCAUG

Variants of: B1
experiment_notes: polymerase ribozyme fitness, log enrichment relative to wild type (log ratio); higher = more active; in vitro selection for triplet polymerase activity
This sample holds only a part of the variants without activity.
Mark class 1 for reported polymerase ribozyme fitness (log ratio) of -0.3 or greater; mark class 0 for anything smaller.

Task: Does the variant A52G G152C have recorded polymerase ribozyme fitness (log ratio) that is -0.3 or more?
Output: class 0

Task: State whether the measured polymerase ribozyme fitness (log ratio) reaches -0.3, counting equality as reaching it, for C38U G70A C95A C99U A107U
Output: class 0

Task: In plain terms: is recorded polymerase ribozyme fitness (log ratio) at least -0.3 for A24U U45G G86A ?
Output: class 0
